Give measured z-score for each item. Keep answers brief.
assayName: Plasmodium falciparum growth inhibition, primary screen, strain 3D7, DAPI fluorescence, 100 nL (AID 1184);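 note: parasites grown inside human red blood cells in medium with human serum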
conditionSummary: P. falciparum 3D7 growth, 3 d, higher = more signal
Answer with the value's number alone.

Task item: Item Cc1ccccc1C(O)C1C=CC2C(=O)N(C)C(=O)C2N1Nc1ccccc1 (centres undefined) has what recorded z-score?
Reply: 1.11

Task item: Moving on to `C=C(COC)C(=O)CC[C@H](OC(C)=O)c1cccc(OCCO)c1`
Reply: -2.3

Task item: Moving on to `Cc1ccc(F)cc1S(=O)(=O)N[C@@H]1CCN(Cc2ccc(-c3ccccc3)cc2)C1`
Reply: -1.89

Task item: Moving on to `COCCOC(=O)N1C(=O)[C@@]2(c3cc(C#CC4=CCCCC4)ccc31)[C@H](C(=O)N1CCc3cc(OC)c(OC)cc3C1)[C@H]1C(=O)O[C@H](c3ccccc3)[C@H](c3ccccc3)N1[C@@H]2c1ccccc1OCCO`
Reply: -2.23

Task item: Moving on to `COc1ccc(C(=O)Nc2cccc(CN3C(=O)[C@]4(O[C@H](CC(=O)N5CCC[C@H]5CO)[C@@H]([Si](C)(C)c5ccc(OC)cc5)[C@@H]4C)c4ccccc43)c2)cc1`
Reply: -1.34

Task item: Moving on to `[N-]=[N+]=Nc1ccccc1[C@H]1OC(c2ccc(OCCCO)cc2)=N[C@@]1(CCS(=O)(=O)c1ccccc1)C(=O)O`
Reply: -1.46

Task item: Moving on to `COc1ccccc1CN1C(=O)c2ccccc2[C@@H](C(=O)NCCN2CCOCC2)[C@@H]1c1ccc(CO)cc1`
Reply: -1.86

Task item: Moving on to COC(=O)C1=CC(CCCO)=CC(C2CC2)N(Cc2sc3ccccc3c2Cl)C=C1C(=O)OC (centres undefined)
Reply: -2.02

Task item: Moving on to `O=C(CS)NCCCCCCNC(=O)[C@@H]1C[C@@H]2C(=O)N3CCC[C@H]3C(=O)N2[C@@H]1c1ccc(O)cc1`
Reply: 0.331

Task item: Moving on to `COCC(=C=CC[C@H](O)c1ccc(OCCO)cc1)C[C@H](O)c1cc(Cl)cc(Cl)c1O`
Reply: -1.55

Task item: Moving on to `COC(=O)[C@@]1(Cc2ccc(OC)cc2)[C@H]2c3cc(C(=O)N4CCCC4)n(Cc4cc(F)cc5c4OCOC5)c3C[C@H]2CN1C(=O)c1ccccc1`
Reply: -1.72

Task item: Moving on to `COC(=O)C[C@@H]1C[C@H](C)[C@]2(O1)C(=O)N(Cc1ccccc1)c1ccc(NC(C)=O)cc12`
Reply: -1.78

Task item: Moving on to `C=C(C(=O)CC[C@H](OC(C)=O)c1ccc(OCCO)cc1)C(C)C`
Reply: -2.57

Task item: Moving on to `COCCOC(=O)N1C(=O)[C@@]2(c3cc(C#CCCO)ccc31)[C@H](c1ccccc1OCCO)N1[C@H](c3ccccc3)[C@H](c3ccccc3)OC(=O)[C@H]1[C@@H]2C(=O)N1CCN(c2ncccn2)CC1`
Reply: -1.89

Task item: Moving on to `CCOC(=O)C[C@H]1[C@H](OC(=O)c2ccc(-c3ccccc3)cc2)[C@@H](NC(=O)c2ccc(-c3ccccc3)cc2)c2cc(OCCCO)ccc2N1C(=O)Cc1ccc(OC)cc1`
Reply: 0.555

Task item: Moving on to N#Cc1ccc(NN2C(C(O)C3CCCCC3)C=CC3C(=O)N(c4ccccc4)C(=O)C32)cc1 (centres undefined)
Reply: 0.898

Task item: Moving on to `Cc1ccc(S[C@]2(C(=O)O)CC(=O)N(C3Cc4ccccc4C3)[C@@H]2c2ccc(CO)cc2I)cc1`
Reply: -0.111

Task item: Moving on to O=C1OCCC=C[C@H]2OC34C=CCN(Cc5ccccc5)C(=O)[C@H]3N(CCCCCCO)C(=O)[C@@H]4C12 (some centres undefined)
Reply: 0.0921

Task item: Moving on to `O=C1[C@]2(CO)C=C(Br)[C@@H](C[C@@H]2c2ccccc2)[C@@]12CO2`
Reply: 0.808
